The following binders are listed with their measured koff values.
# assay.target: T1, hmm.hTfRC (REGN2431), human transferrin receptor extracellular domain with hexahistidine-myc-myc tag (human, UniProt P02786 89-760)
# T1 construct: Monomeric recombinant protein, 79210 g/mol; also called hTFR-mmh; His-myc-myc-hTFRC ecto
# T1 sequence (P02786 other isoform, or with tags, fused parts or gaps): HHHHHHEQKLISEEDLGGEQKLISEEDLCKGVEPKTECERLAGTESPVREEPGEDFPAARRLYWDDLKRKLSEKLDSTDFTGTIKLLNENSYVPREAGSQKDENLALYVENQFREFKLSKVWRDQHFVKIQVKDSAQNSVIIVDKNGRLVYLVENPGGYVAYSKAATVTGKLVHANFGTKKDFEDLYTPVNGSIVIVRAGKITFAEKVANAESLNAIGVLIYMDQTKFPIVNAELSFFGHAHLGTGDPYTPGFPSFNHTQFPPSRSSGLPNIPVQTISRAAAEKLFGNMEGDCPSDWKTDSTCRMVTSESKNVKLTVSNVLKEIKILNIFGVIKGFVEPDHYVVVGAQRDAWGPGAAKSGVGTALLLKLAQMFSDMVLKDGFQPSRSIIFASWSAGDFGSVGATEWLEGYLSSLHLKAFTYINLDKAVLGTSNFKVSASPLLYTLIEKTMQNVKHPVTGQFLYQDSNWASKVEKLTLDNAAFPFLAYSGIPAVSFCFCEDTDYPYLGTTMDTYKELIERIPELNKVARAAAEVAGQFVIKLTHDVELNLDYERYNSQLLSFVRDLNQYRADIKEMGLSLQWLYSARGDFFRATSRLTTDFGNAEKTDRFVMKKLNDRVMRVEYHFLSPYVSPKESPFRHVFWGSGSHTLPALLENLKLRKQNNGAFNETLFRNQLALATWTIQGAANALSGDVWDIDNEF
# assay.text: SPR (Biacore), mAb captured on anti-human Fc, 100 nM hTFR-mmh, 25 C

binder: 69331 (antibody, human IgG1, kappa, V domains shown, Tested as bivalent human IgG1 from CHO primary supernatant) VH: QVQLVESGGGVVQPGRSLRLSCIASGFTFSVYGIHWVRQAPGKGLEWMAVISHDGNIKHYADSVKGRFTISRDNSKNTLYLQINSLRTEDTAVYYCAKDTWNSLDTFDIWGQGTMVTVSS VL: DIQLTQSPSSLSASVGDRVTITCWASQGISSYLAWYQQKPGKAPKLLIYAASTLQSGVPSRFSGSGSGTEFTLTISSLQPEDFATYYCQQLNSYPLTFGGGTKVEIKR
censoring.qualifier: =
koff, s⁻¹: 0.00466
--
binder: 31863B (antibody, human IgG1, kappa, V domains shown, Tested as bivalent human IgG1 from CHO primary supernatant) VH: EVQLVESGGGLVQPGGSLRLSCAASGFTFNSYAMTWVRQAPGKGLEWVSFIGGSTGNTYYAGSVKGRFTISSDNSKKTLYLQMNSLRAEDTAVYYCAKGGAARRMEYFQHWGQGTLVTVSS VL: DIQMTQSPSSLSASIGDRVTITCRASQGISNYLAWYQQKPGKVPKLLIYAASTLQSGVPSRFSGSGSGTDFTLTISSLQPEDVATYYCQNHNSVPLTFGGGTKVEIKR
censoring.qualifier: <
koff, s⁻¹: 1e-05
--
binder: 69348 (antibody, human IgG1, kappa, V domains shown, Tested as bivalent human IgG1 from CHO primary supernatant) VH: QVQLVESGGGVVQPGRSLRLSCAASGFTFTTYGMHWVRQAPGKGLEWVAVIWYDGSNKYYGDSVKGRFTISRDNSKNTLYLQMNSLRVDDTAVYYCTRTHGYTRSSDGFDYWGQGTLVTVSS VL: DIQMTQSPSSLSASVGDRVTITCRASQSIRNVLGWFQQKPGKAPQRLIYAASSLQSGVPSRFSGSGSGTEFTLTISSLQPEDFATYYCLQHNFYPLTFGGGTKVEIKR
censoring.qualifier: =
koff, s⁻¹: 0.000172
--
binder: 12802B (antibody, human IgG1, kappa, V domains shown, Tested as bivalent human IgG1 from CHO primary supernatant) VH: QVQLVESGGGLVKPGGSLRLSCAASGFTFSDYFMSWIRQAPGKGLEWVSYISSTGSTINYADSVKGRFTISRDNVKNSLYLQMTSLRVEDTAVYYCTRDNWNYEYWGQGTLVTVSS VL: EIVMTQSPATLSVSPGERATLSCRASQSVSINLAWYQQKPGQAPRLLIFVASTRATGIPARFSGSGSGTEFTLTISSLQSEDFATYYCQQYDIWPYTFGQGTKLEIKR
censoring.qualifier: =
koff, s⁻¹: 2.92e-05
